Tested on: human APOE RNA
method.notes: Dose-dependent inhibition of human APOE RNA in HepG2 cells, electroporation, 50,000 cells per well, RT-PCR normalized to GAPDH (Example 4, Tables 8-10)
Assay type: cell-based
experimental.parameters: 512 nM; HepG2, electroporation, 16-hour treatment
Strand notation (5' to 3'): a small letter for the sugar, then the base; units joined by * are phosphorothioate-linked, units joined directly phosphodiester-linked; [ ] holds rarer units or linkages, { } end groups; capitals alone tell only the bases. e = 2'-O-(2-methoxyethyl) (MOE); k = constrained ethyl (cEt); [5mC] = 5-methylcytosine; d = 2'-deoxy (DNA)
measure: APOE RNA (% UTC)
Expressed in % UTC, but write only the number.

Missing value: APOE RNA (% UTC), human APOE RNA, entry 1757562: mixed MOE/cEt gapmer TTGGTGAATCTTTATTAA, sugar eeeekddddddddkkeee, linkages soossssssssssooss (eT*eTeGeG*kT*dG*dA*dA*dT*d[5mC]*dT*dT*dT*kAkTeT*eA*eA) [compound 1757562] . Fill in?
45

Form: Entry = 1757541: mixed MOE/cEt gapmer TTGGTGAATCTTTATTAA, sugar eeeekddddddddeeeee, linkages soossssssssssooss (eT*eTeGeG*kT*dG*dA*dA*dT*d[5mC]*dT*dT*dT*eAeTeT*eA*eA) [compound 1757541] | System = human APOE RNA | APOE RNA (% UTC) = ____
66

Request: APOE RNA (% UTC), test system human APOE RNA, entry 1757564: mixed MOE/cEt gapmer TTGGTGAATCTTTATTAA, sugar eeeekddddddddkeeke, linkages soossssssssssooss (eT*eTeGeG*kT*dG*dA*dA*dT*d[5mC]*dT*dT*dT*kAeTeT*kA*eA) [compound 1757564]
72

Query for human APOE RNA: what APOE RNA (% UTC) does the record show for 1757563: mixed MOE/cEt gapmer TTGGTGAATCTTTATTAA, sugar eeeekddddddddkekee, linkages soossssssssssooss (eT*eTeGeG*kT*dG*dA*dA*dT*d[5mC]*dT*dT*dT*kAeTkT*eA*eA) [compound 1757563] ?
67

Hey, just so you know, these numbers are from patent US20250353873A1.
